target: T1, SARS-CoV-2 spike glycoprotein S1+S2 extracellular domain (SARS-CoV-2, reference sequence, UniProt P0DTC2); assay: ELISA
T1 construct: also called full-length spike glycoprotein ectodomain
QUANTITY NAME: OD450
The answer should read as a number with its unit following.

FN 12A (antibody, V domains shown, source: HEK293T, transfected; culture supernatant or purified) VH: QVQLVQSGAEVKKPGSSVKVSCKASGGTFSSYAISWVRQAPGQGLEWMGRIIPILGIANYAQKFQGRVTITADKSTSTAYMELSSLRSEDTAVYYCARSGCSSTSCPSNLYYYYYGMDVWGQGTTVTVSS VL: QSVLTQPPSVSAAPGQKVTISCSGSSSNIGNNYVSWYQQLPGTAPKLLIYDNNKRPSGIPDRFSGSKSGTSATLGITGLQTGDEADYYCGTWDSSLSALVFGGGTKLTVL; 2.24 OD450

# input for lookup
Exam item: Would you mind telling me what OD450 value was observed for FI 4A (antibody, V domains shown, source: HEK293T, transfected; culture supernatant or purified) VH: EVQLVESGGGLVKPGGSLRLSCAASGFTFSRFSMNWVRQAPGKGLEWVSSISSSGSYIYFADSVKGRFTISRDNAKNSLYLQMNSLRAEDTAIYYCATYLFGDSHTYWGQGTLVTVSS VL: QSVLTQPHSVSESPGKTVTISCTGSSGSIASNYVQWYQQRPGSAPTTVIYEDNQRPSGVPDRFSGSIDSSSNSASLTISGLKTEDEADYYCQSYDSSNLHWVFGGGTKLTVL ?
Marked response: 1.68 OD450
